List of CC50 values.
- assay.details: Cytotoxicity against human HepG2 cells
- Type: cell-based
- experimental.parameters: read-out: TC50 (the source's name)
assay.metric: CC50 (µM)

[[record]]
structure_smiles_string = "CCOC(=O)CN(C)CC#Cc1cc2ncnc(Nc3ccc(OCc4cccc(F)c4)c(Cl)c3)c2s1"
assay_metric = "CC50"
lt_gt_eq = "="
measurement = 27

[[record]]
structure_smiles_string = "CN1CCN(CC#Cc2cc3c(Nc4ccc(OCc5cccc(F)c5)c(Cl)c4)ncnc3s2)CC1"
assay_metric = "CC50"
lt_gt_eq = "="
measurement = 15

[[record]]
structure_smiles_string = "Fc1cccc(COc2ccc(Nc3ncnc4cc(C#Cc5cn6ccnc6cn5)sc34)cc2Cl)c1"
assay_metric = "CC50"
lt_gt_eq = ">"
measurement = 28

[[record]]
structure_smiles_string = "CN(CC#Cc1cc2c(Nc3ccc(OCc4cccc(F)c4)c(Cl)c3)ncnc2s1)Cc1ccccc1"
assay_metric = "CC50"
lt_gt_eq = "="
measurement = 21.6

